assay: Selectivity index, ratio of IC50 for human 1A2 cells to EC50 for deltaTat/rev deffective HIV-1 MC99 infected in human 1A2 cells; format: toxicity, cell-based; conditions: read-out: Ratio IC50/EC50
reported.endpoint: selectivity ratio

{"columns": ["compound", "value.relation.sign", "assay.result"],
 "data": [
  ["C=C(C(=O)O)[C@@H]1CC[C@@H]2[C@]3(CC[C@]4(C)[C@@H]([C@H](C)CC(=O)C=C(C)C)CC[C@@]24C)C[C@]13CCC(=O)O", ">", 7],
  ["C=C(CO)[C@@H]1CC[C@@H]2[C@H](CC[C@]3(C)[C@@H]([C@H](C)CC(=O)C=C(C)C)CC[C@@]23C)C[C@]12CCC(=O)O2", "=", 3.4],
  ["C=C1COC(=O)CC[C@]23C[C@]24CC[C@]2(C)[C@@H]([C@H](C)CC(=O)C=C(C)C)CC[C@@]2(C)[C@@H]4CC[C@@H]13 (relative stereo)", ">", 3.4],
  ["CC(C)CC(=O)C[C@@H](C)[C@H]1CC[C@@]2(C)[C@@H]3CC[C@H]4[C@](C)(C(=O)O)[C@@H](O)C[C@H](O)[C@@]45C[C@@]35CC[C@]12C", "=", 1.8],
  ["CC(C)CC(=O)C[C@@H](C)[C@H]1CC[C@@]2(C)[C@@H]3CC[C@H]4[C@](C)(C(=O)O)[C@@H](O)CC[C@@]45C[C@@]35CC[C@]12C (relative stereo)", "=", 1.2],
  ["C=C(C(=O)O)[C@@H]1CC[C@@H]2[C@]3(CC[C@]4(C)[C@@H]([C@H](C)CC(=O)C=C(C)C)CC[C@@]24C)C[C@]13CCC(=O)OC (relative stereo)", "=", 1.6]
]}
